Data credit: the supplement of paper PMC11246515

# total protein half-life in vivo listing for each entry below
- procedure.details: total protein half-life in vivo (active degradation + dilution); higher = more stable protein
- assay.conditions: wild type E. coli NCM3722; growth: C-lim chemostat; doubling time 3 h
Please answer in the form of a number followed by its unit of measurement.

Consider the worked cases shown below.
{"residue.codes": "MTLQQQIIKALGAKPQINAEEEIRRSVDFLKSYLQTYPFIKSLVLGISGGQDSTLAGKLCQMAINELRLETGNESLQFIAVRLPYGVQADEQDCQDAIAFIQPDRVLTVNIKGAVLASEQALREAGIELSDFVRGNEKARERMKAQYSIAGMTSGVVVGTDHAAEAITGFFTKYGDGGTDINPLYRLNKRQGKQLLAALACPEHLYKKAPTADLEDDRPSLPDEVALGVTYDNIDDYLEGKNVPQQVARTIENWYLKTEHKRRPPITVFDDFWKK", "endpoint.result": "3.37 h"}
{"residue.codes": "MAVQKNVIKGILAGTFALMLSGCVTVPDAIKGSSPTPQQDLVRVMSAPQLYVGQEARFGGKVVAVQNQQGKTRLEIATVPLDSGARPTLGEPSRGRIYADVNGFLDPVDFRGQLVTVVGPITGAVDGKIGNTPYKFMVMQVTGYKRWHLTQQVIMPPQPIDPWFYGGRGWPYGYGGWGWYNPGPARVQTVVTE [P0AA91]", "endpoint.result": "3.01 h"}
{"residue.codes": "MGGISIWQLLIIAVIVVLLFGTKKLGSIGSDLGASIKGFKKAMSDDEPKQDKTSQDADFTAKTIADKQADTNQEQAKTEDAKRHDKEQV", "endpoint.result": "2.93 h"}

Which total protein half-life in vivo is reported for this sequence? MINALGLLEVDGMVAAIDAADAMLKAANVRLLSHEVLDPGRLTLVVEGDLAACRAALDAGCAAAMRTGRVISRKEIGRPDDDTQWLVTGFNRQPKQPVREPDAPVIVAESADELLALLTSVRQGMTAGEVAAHFGWPLEKARNALEQLFSAGTLRKRSSRYRLKPH
1.02 h

* * *

- procedure.details: total protein half-life in vivo (active degradation + dilution); higher = more stable protein
- assay.conditions: E. coli NCM3722 delta-hslV; growth: N-lim chemostat; doubling time 6 h
observed.property: total protein half-life in vivo
Answer format: value, then unit.

Some solved entries appear below for comparison.
{"residue.codes": "MQARVKWVEGLTFLGESASGHQILMDGNSGDKAPSPMEMVLMAAGGCSAIDVVSILQKGRQDVVDCEVKLTSERREEAPRLFTHINLHFIVTGRDLKDAAVARAVDLSAEKYCSVALMLEKAVNITHSYEVVAA [P0ADX1]", "observed.property": "total protein half-life in vivo", "endpoint.result": "4.69 h"}
{"residue.codes": "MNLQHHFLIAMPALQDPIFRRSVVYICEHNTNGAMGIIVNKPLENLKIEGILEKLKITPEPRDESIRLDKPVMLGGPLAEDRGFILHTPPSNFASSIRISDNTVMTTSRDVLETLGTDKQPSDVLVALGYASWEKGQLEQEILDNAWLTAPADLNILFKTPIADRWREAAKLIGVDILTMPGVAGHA [P0A8W5]", "observed.property": "total protein half-life in vivo", "endpoint.result": "4.32 h"}

Please examine the following record next.
What value of total protein half-life in vivo has been reported for the following sequence? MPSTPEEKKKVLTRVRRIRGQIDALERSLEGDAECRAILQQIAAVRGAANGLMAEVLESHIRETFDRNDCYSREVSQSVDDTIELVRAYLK [P0AAP3]
4.99 h

* * *

Item-by-item account of total protein half-life in vivo
- procedure.details: total protein half-life in vivo (active degradation + dilution); higher = more stable protein
- assay.conditions: E. coli NCM3722 delta-clpP delta-lon delta-hslV; growth: N-lim chemostat; doubling time 6 h
Just the number please, in h, no unit attached.

// known answers, use as guide
{"residue.codes": "MYTLNWQPPYDWSWMLGFLAARAVSSVETVADSYYARSLAVGEYRGVVTAIPDIARHTLHINLSAGLEPVAAECLAKMSRLFDLQCNPQIVNGALGRLGAARPGLRLPGCVDAFEQGVRAILGQLVSVAMAAKLTARVAQLYGERLDDFPEYICFPTPQRLAAADPQALKALGMPLKRAEALIHLANAALEGTLPMTIPGDVEQAMKTLQTFPGIGRWTANYFALRGWQAKDVFLPDDYLIKQRFPGMTPAQIRRYAERWKPWRSYALLHIWYTEGWQPDEA", "readout.units": "h", "total protein half-life in vivo": 6.48}
{"residue.codes": "MIREAQRSELPAILELWLESTTWGHPFIKANYWRDCIPLVRDAYLANAQNWVWEEDGKLLGFVSIMEGRFLAAMFVAPKAVRRGIGKALMQYVQQRHPHLMLEVYQKNQPAINFYQAQGFHIVDCAWQDETQLPTWIMSWPVVQTL", "readout.units": "h", "total protein half-life in vivo": 5.19}
{"residue.codes": "MNIVITGGTGLIGRHLIPRLLELGHQITVVTRNPQKASSVLGPRVTLWQGLADQSNLNGVDAVINLAGEPIADKRWTHEQKERLCQSRWNITQKLVDLINASDTPPSVLISGSATGYYGDLGEVVVTEEEPPHNEFTHKLCARWEEIACRAQSDKTRVCLLRTGVVLAPDGGILGKMLPPFRLGLGGPIGSGRQYLAWIHIDDMVNGILWLLDNELRGPFNMVSPYPVRNEQFAHALGHALHRPAILRVPATAIRLLMGESSVLVLGGQRALPKRLEEAGFAFRWYDLEEALADVVR", "readout.units": "h", "total protein half-life in vivo": 7.07}
{"residue.codes": "MTQNIRPLPQFKYHPKPLETGAFEQDKTVECDCCEQQTSVYYSGPFYCVDEVEHLCPWCIADGSAAEKFAGSFQDDASIEGVEFEYDEEDEFAGIKNTYPDEMLKELVERTPGYHGWQQEFWLAHCGDFCVFIGYVGWNDIKDRLDEFANLEEDCENFGIRNSDLAKCLQKGGHCQGYLFRCLHCGKLRLWGDFS", "readout.units": "h", "total protein half-life in vivo": 5.27}

Now look at this entry.
Param item = MSRPLLQLALDHSSLEAAQRDVTLLKDSVDIVEAGTILCLNEGLGAVKALREQCPDKIIVADWKVADAGETLAQQAFGAGANWMTIICAAPLATVEKGHAMAQRCGGEIQIELFGNWTLDDARDWHRIGVRQAIYHRGRDAQASGQQWGEADLARMKALSDIGLELSITGGITPADLPLFKDIRVKAFIAGRALAGAANPAQVAGDFHAQIDAIWGGARA ; retrieve measured total protein half-life in vivo.
4.65

* * *

- procedure.details: total protein half-life in vivo (active degradation + dilution); higher = more stable protein
- assay.conditions: wild type E. coli NCM3722; growth: P-lim chemostat; doubling time 12 h
# maps each entry to its total protein half-life in vivo
In your response, put the unit directly after the numeric value.

The cases that follow already have their total protein half-life in vivo on record.
{"residue.codes": "MAKSLFRALVALSFLAPLWLNAAPRVITLSPANTELAFAAGITPVGVSSYSDYPPQAQKIEQVSTWQGMNLERIVALKPDLVIAWRGGNAERQVDQLASLGIKVMWVDATSIEQIANALRQLAPWSPQPDKAEQAAQSLLDQYAQLKAQYADKPKKRVFLQFGINPPFTSGKESIQNQVLEVCGGENIFKDSRVPWPQVSREQVLARSPQAIVITGGPDQIPKIKQYWGEQLKIPVIPLTSDWFERASPRIILAAQQLCNALSQVD", "total protein half-life in vivo": "12.3 h"}
{"residue.codes": "MTIKLIVGLANPGAEYAATRHNAGAWFVDLLAERLRAPLREEAKFFGYTSRVTLGGEDVRLLVPTTFMNLSGKAVAAMASFFRINPDEILVAHDELDLPPGVAKFKLGGGHGGHNGLKDIISKLGNNPNFHRLRIGIGHPGDKNKVVGFVLGKPPVSEQKLIDEAIDEAARCTEMWFTDGLTKATNRLHAFKAQ [P0A7D1]", "total protein half-life in vivo": "11.4 h"}
{"residue.codes": "MPKKNEAPASFEKALSELEQIVTRLESGDLPLEEALNEFERGVQLARQGQAKLQQAEQRVQILLSDNEDASLTPFTPDNE [P0A8G9]", "total protein half-life in vivo": "14.2 h"}

Would you mind telling me what total protein half-life in vivo value was observed for MKSVLKVSLAALTLAFAVSSHAADKKLVVATDTAFVPFEFKQGDKYVGFDVDLWAAIAKELKLDYELKPMDFSGIIPALQTKNVDLALAGITITDERKKAIDFSDGYYKSGLLVMVKANNNDVKSVKDLDGKVVAVKSGTGSVDYAKANIKTKDLRQFPNIDNAYMELGTNRADAVLHDTPNILYFIKTAGNGQFKAVGDSLEAQQYGIAFPKGSDELRDKVNGALKTLRENGTYNEIYKKWFGTEPK [P0AEQ3] ?
14.1 h

Moving on to the next sequence: MLKIIRAGMYTTVQDGGRHGFRQSGISHCGALDMPALRIANLLVGNDANAPALEITLGQLTVEFETDGWFALTGAGCEARLDDNAVWTGWRLPMKAGQRLTLKRPQHGMRSYLAVAGGIDVPPVMGSCSTDLKVGIGGLEGRLLKDGDRLPIGKSKRDSMEAQGVKQLLWGNRIRALPGPEYHEFDRASQDAFWRSPWQLSSQSNRMGYRLQGQILKRTTDRELLSHGLLPGVVQVPHNGQPIVLMNDAQTTGGYPRIACIIEADMYHLAQIPLGQPIHFVQCSLEEALKARQDQQRYFEQLAWRLHNEN
11.3 h

Again, but for MAELSDQEMLRYNRQIILRGFDFDGQEALKDSRVLIVGLGGLGCAASQYLASAGVGNLTLLDFDTVSLSNLQRQTLHSDATVGQPKVESARDALTRINPHIAITPVNALLDDAELAALIAEHDLVLDCTDNVAVRNQLNAGCFAAKVPLVSGAAIRMEGQITVFTYQDGEPCYRCLSRLFGENALTCVEAGVMAPLIGVIGSLQAMEAIKMLAGYGKPASGKIVMYDAMTCQFREMKLMRNPGCEVCGQ
13.2 h
